pIC50: recorded values
# Target Or Test System: Beta Secretase enzyme (BACE) (Homo sapiens (Human), UniProt P56817)
# Sequence (P56817 46-501): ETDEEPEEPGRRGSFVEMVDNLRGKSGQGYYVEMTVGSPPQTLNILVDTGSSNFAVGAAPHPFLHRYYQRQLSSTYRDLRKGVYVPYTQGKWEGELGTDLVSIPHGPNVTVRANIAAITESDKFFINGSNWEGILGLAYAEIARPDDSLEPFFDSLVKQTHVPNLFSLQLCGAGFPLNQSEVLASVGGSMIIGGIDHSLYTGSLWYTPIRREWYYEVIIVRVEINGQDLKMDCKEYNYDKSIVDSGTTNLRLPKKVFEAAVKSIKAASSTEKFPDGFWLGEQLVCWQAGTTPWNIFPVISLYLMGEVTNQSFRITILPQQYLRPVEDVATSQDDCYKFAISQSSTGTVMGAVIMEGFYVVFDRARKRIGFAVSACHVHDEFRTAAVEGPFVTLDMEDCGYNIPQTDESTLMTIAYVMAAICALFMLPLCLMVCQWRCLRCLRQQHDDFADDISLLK
# Assay Procedure: In vitro enzymatic BACE FRET assay
# Assay type: biochemical
# Reported Conditions: average IC50; read-out: BACE 1 FRET assay IC50
Worth noting: pIC50 values are minus log10 of concentrations stated in mol/L.

Worked set:
C#CCOc1cnc(C(=O)Nc2ccc(F)c([C@]3(C)C[C@@H](C(F)(F)F)OC(N)=N3)n2)cn1 = 7.60
NC1=N[C@](CF)(c2cc(NC(=O)c3ccc(Cl)cn3)ccc2F)C[C@@H](C(F)(F)F)O1 = 7.74
C[C@@]1(c2cc(Nc3ncnc4cc(Cl)cnc34)cnc2F)C[C@@H](C(F)(F)F)OC(N)=N1 = 7.06
Cc1cc(C#N)cnc1C(=O)Nc1cc([C@]2(C)C[C@@H](C(F)(F)F)OC(N)=N2)c(=O)n(C)c1 = 6.92
N#Cc1ccc(C(=O)Nc2cccc([C@]3(CF)C[C@@H](C(F)(F)F)OC(N)=N3)c2)nc1 = 7.05
NC1=N[C@](CF)(c2cccc(NC(=O)c3ccc(Cl)cn3)c2)C[C@@H](C(F)(F)F)O1 = 6.93
Cc1cc(Cl)cnc1C(=S)Nc1ccc(F)c([C@]2(CF)C[C@@H](C(F)(F)F)OC(N)=N2)c1 = 5.75
N#Cc1cccnc1Oc1ccc(F)c([C@]2(CF)C[C@@H](C(F)(F)F)OC(N)=N2)c1 = 5.23
C[C@@]1(c2cc(Nc3nccc4cc(Cl)cnc34)cnc2F)C[C@@H](C(F)(F)F)OC(N)=N1 = 7.48
C[C@@]1(c2cc(NC(=O)c3ncc(Cl)cc3Cl)cnc2F)C[C@@H](C(F)(F)F)OC(N)=N1 = 7.12

Look up and report pIC50, with Beta Secretase enzyme (BACE) (Homo sapiens (Human), UniProt P56817) as system, for `C[C@@]1(c2cc(NC(=O)c3ccc(Cl)cn3)ccc2F)C[C@@H](C(F)(F)F)OC(N)=N1`
7.91

Look up and report pIC50, with Beta Secretase enzyme (BACE) (Homo sapiens (Human), UniProt P56817) as system, for `Cc1cc(Cl)cnc1C(=O)Nc1cnc(F)c([C@]2(C)C[C@@H](C(F)(F)F)OC(N)=N2)c1`
7.26

Look up and report pIC50, with Beta Secretase enzyme (BACE) (Homo sapiens (Human), UniProt P56817) as system, for `NC1=N[C@](CF)(c2cc(NC(=O)c3ccc(OCC(F)(F)F)cn3)ccc2F)C[C@@H](C(F)(F)F)O1`
7.37

----------
# System: Aβ40 in conditioned medium of cells stably expressing Amyloid Precursor Protein (APP)
# Assay Procedure: In vitro BACE cell-based assay (Aβ40 sandwich ELISA)
# Reported Conditions: Homo sapiens, HEK293, average IC50, HEK cell assay; read-out: HEK cell assay IC50
# Procedure: In Vitro BACE Cell-Based Assay The cell-based assay measures inhibition or reduction of Aβ40 in conditioned medium of test compound treated cells expressing amyloid precursor protein. Cells stably expressing Amyloid Precursor Protein (APP) were plated at a density of 40K cells/well in 96 well plates (Costar). […] After 24 h of incubation with the test compounds the supernatant conditioned media was collected and the Aβ 40 levels were determined using a sandwich ELISA. […]
IC50: recorded values
// units = nM; emit number, no label

Worked set:
C#CCOc1ccc(C(=O)Nc2cc(F)c(F)c([C@]3(CF)C[C@@H](C(F)(F)F)OC(N)=N3)c2)nc1 = 93
NC1=N[C@](CF)(c2cc(Nc3cc(-c4ccccc4)ccn3)ccc2F)C[C@@H](C(F)(F)F)O1 = 3160
C[C@@]1(c2cc(NC(=O)c3ccc(Cl)cn3)cc(F)c2F)C[C@@H](C(F)(F)F)OC(N)=N1 = 5.2
C[C@@]1(c2cc(Nc3nc4ccc(Cl)cc4o3)ccc2F)C[C@@H](C(F)(F)F)OC(N)=N1 = 3010

Input `NC1=N[C@](CF)(c2cc(Nc3nccc4nc(C(F)(F)F)cnc34)ccc2F)C[C@@H](C(F)(F)F)O1` , output reported IC50.
336
